molecular target: T1, His-tagged PCSK9Δhelix (human, UniProt Q8NBP7 31-152; Q8NBP7 168-692); assay: TR-FRET competition; His-PCSK9Δhelix, competitor Ab20
T1 construct: Construct M1-Q692 with engineered TEV site, cut by TEV protease; new N-terminus of the catalytic domain is S-A168; also called His-PCSK9Δhelix
T1 sequence (Q8NBP7 31-152, stated change not applied, chain 1 of 2): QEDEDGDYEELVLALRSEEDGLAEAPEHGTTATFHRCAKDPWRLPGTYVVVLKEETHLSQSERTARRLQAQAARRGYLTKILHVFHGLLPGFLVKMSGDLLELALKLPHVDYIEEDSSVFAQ
T1 sequence (Q8NBP7 other isoform, or with tags, fused parts or gaps mutant, chain 2 of 2): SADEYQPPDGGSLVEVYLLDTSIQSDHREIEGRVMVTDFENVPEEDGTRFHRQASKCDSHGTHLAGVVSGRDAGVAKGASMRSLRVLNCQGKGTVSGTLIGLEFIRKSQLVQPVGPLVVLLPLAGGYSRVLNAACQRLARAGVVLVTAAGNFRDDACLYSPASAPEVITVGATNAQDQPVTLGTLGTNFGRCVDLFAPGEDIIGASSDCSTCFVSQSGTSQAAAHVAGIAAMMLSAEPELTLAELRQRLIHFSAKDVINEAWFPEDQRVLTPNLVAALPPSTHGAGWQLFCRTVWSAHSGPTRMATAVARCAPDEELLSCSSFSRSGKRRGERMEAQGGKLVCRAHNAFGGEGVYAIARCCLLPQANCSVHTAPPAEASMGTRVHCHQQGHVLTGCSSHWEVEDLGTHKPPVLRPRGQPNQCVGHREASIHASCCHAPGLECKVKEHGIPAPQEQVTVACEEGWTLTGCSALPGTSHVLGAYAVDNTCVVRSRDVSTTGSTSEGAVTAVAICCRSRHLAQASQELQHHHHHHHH
Square brackets hold non-standard residues; d marks the D form. Ends that are not written are not given here. * marks the point of attachment. Trp(6-Cl) = N[C@@H](Cc1c[nH]c2cc(Cl)ccc12)C(=O)O; Pentanoyl = CCCCC(=O)*
Task for the reader: assign each of the following binders its reported IC50.
The reply should be a number in µM, with the unit left off.

Which IC50 is reported for this binder? Pentanoyl-WNLVRIGLDR-NH2 (SMILES CCCCC(=O)N[C@@H](Cc1c[nH]c2ccccc12)C(=O)N[C@@H](CC(N)=O)C(=O)N[C@@H](CC(C)C)C(=O)N[C@H](C(=O)N[C@@H](CCCNC(=N)N)C(=O)N[C@H](C(=O)NCC(=O)N[C@@H](CC(C)C)C(=O)N[C@@H](CC(=O)O)C(=O)N[C@@H](CCCNC(=N)N)C(N)=O)[C@@H](C)CC)C(C)C) [Compound 178] 18

Field entry: Pentanoyl-[Trp(6-Cl)]NLVRIGLTR-NH2 (SMILES CCCCC(=O)N[C@@H](Cc1c[nH]c2cc(Cl)ccc12)C(=O)N[C@@H](CC(N)=O)C(=O)N[C@@H](CC(C)C)C(=O)N[C@H](C(=O)N[C@@H](CCCNC(=N)N)C(=O)N[C@H](C(=O)NCC(=O)N[C@@H](CC(C)C)C(=O)N[C@H](C(=O)N[C@@H](CCCNC(=N)N)C(N)=O)[C@@H](C)O)[C@@H](C)CC)C(C)C) [Compound 186] 11

Field entry: WNLVRIGLTR (also: further groups not given here, Structure printed only as a drawing) [Compound 188] 7.6

Field entry: WNLVRIGTLR (also: further groups not given here, Structure printed only as a drawing) [Compound 182] 4
